tested on: NALM 6 cells; test: MET-ENK-FITC binding to NALM 6 cells (flow cytometry, Scatchard); design: species or system human; settings: NALM 6; read-out: Kd, high affinity site
Assay Readout: Kd (nM)
Return type: number; implicit unit nM.

Kd in this record for CSCC[C@H](NC(=O)[C@H](Cc1ccccc1)NC(=O)CNC(=O)CNC(=O)[C@@H](N)Cc1ccc(O)cc1)C(=O)O : 1.01

---

tested on: NALM 6 cells; assay: Migration (chemotaxis) of NALM 6 pre-B ALL cells; assay type: cell-based, human; settings: NALM 6, peptide 100 nM; spontaneous locomotion 2190
Entries and their cell migration (cell counts) values follow.
Give the figure together with its unit, number first.

These solved cases illustrate the format of a correct answer.
Compound	Assayed Target	cell migration (cell counts)
CSCC[C@H](NC(=O)[C@H](Cc1ccccc1)NC(=O)CNC(=O)CNC(=O)[C@@H](N)Cc1ccc(O)cc1)C(=O)O	NALM 6 cells	6952 cell counts
CC(C)C[C@@H](NC(=O)[C@H](Cc1ccccc1)NC(=O)CNC(=O)[C@@H](C)NC(=O)[C@@H](N)Cc1ccc(O)cc1)C(=O)O [DADLE, [D-Ala^2,D-Leu5]-enkephalin]	NALM 6 cells	6240 cell counts
CSCC[C@H](NC=O)C(=O)N[C@@H](CC(C)C)C(=O)N[C@@H](Cc1ccccc1)C(=O)O	NALM 6 cells	3198 cell counts

cell migration (cell counts) in this record for C[C@@H](NC(=O)[C@@H](N)Cc1ccc(O)cc1)C(=O)NCC(=O)N(C)[C@@H](Cc1ccccc1)C(=O)NCCO : 5070 cell counts

---

Molecular target: EBI1 (Homo sapiens, UniProt P32248)
Sequence (P32248 25-378): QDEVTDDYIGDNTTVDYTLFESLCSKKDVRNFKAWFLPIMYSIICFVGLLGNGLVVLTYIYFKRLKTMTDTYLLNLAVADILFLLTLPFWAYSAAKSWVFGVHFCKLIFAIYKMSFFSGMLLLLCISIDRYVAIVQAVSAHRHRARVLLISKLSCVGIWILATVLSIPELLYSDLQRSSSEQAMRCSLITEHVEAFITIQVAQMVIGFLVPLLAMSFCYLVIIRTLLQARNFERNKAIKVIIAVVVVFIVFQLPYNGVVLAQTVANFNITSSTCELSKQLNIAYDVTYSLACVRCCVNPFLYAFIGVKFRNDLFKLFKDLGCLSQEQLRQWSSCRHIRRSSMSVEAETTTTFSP
Assay Readout: pKd
pKd field: float, defined as -log10 of concentration (mol/L).

pKd in this record for CC1(C)SSC(C)(C)[C@@H](NC(=O)[C@@H](N)Cc2ccc(O)cc2)C(=O)NCC(=O)N[C@@H](Cc2ccccc2)C(=O)N[C@H]1C(=O)O [DPDPE, [D-Pen^2,5]enkephalin] : 9.70

---

assay: in vitro; details: human, nalm 6 cells
Assay Readout: viability at 10 µM

viability at 10 µM in this record for C=CCN1CC[C@]23c4c5ccc(O)c4O[C@H]2C(=O)CC[C@@]3(O)[C@H]1C5 : ≥ 96%
